Test Details: in vivo
Condition Set: pig, iv, 5 mg/kg
Value Kind: half-life (h)

{"Smiles Repr": "Nc1ccn(C[C@H]2COP(=O)(O)CO2)c(=O)n1", "Unit Tag": "h", "Observed": 3.31}

###

System: ASFV KAB6/2
Test Details: microbe, parasite or virus in culture
Type: cell-based
Condition Set: African swine fever virus, PBMC, 72 h, read-out: EC50 KAB6/2
pEC50: −log10 of the molar value.
Value Kind: pEC50

{"Smiles Repr": "Nc1ccn(C[C@H]2COP(=O)(O)CO2)c(=O)n1", "Value Kind": "pEC50", "Observed": 6.23}

###

Test Details: in vivo
Condition Set: pig, po, 25 mg/kg, AUC, analyte VV03-0035

{"Molecule": "Nc1ccn(C[C@H]2COP(=O)(O)CO2)c(=O)n1 [cHPMPC, cyclic cidofovir]", "Unit Tag": "µM·h", "AUC": 11.6}
